I'd be grateful if you could share measured IC50 for these entries.
- SYSTEM NAME: SARS2 coronavirus 3CL protease (Severe acute respiratory syndrome coronavirus 2, UniProt P0DTD1)
- METHOD SUMMARY: biochemical
- EXPERIMENTAL PARAMETERS: 5 nM enzyme, 30 min pre-incubation with compound, 15 μM peptide substrate, 4 h at room temperature; read-out: FRET Potency (nM); IC50 values in the SARS2 3CLPro FRET assay
Give bare numbers, in nM.

C[C@@H]1C[C@@H](C[C@H](NC(=O)c2cc(Cl)ccc2NC(=O)C2(C(F)(F)F)CCC2)C(=O)C(=O)NC2CC2)C(=O)N1 [Example 35]	11.1

// input: 5 compounds below; output: IC50 for each
1. C[C@@H]1C[C@@H](C[C@H](NC(=O)c2cc(F)ccc2NC(=O)c2ccnc(C(F)(F)F)c2)C(=O)C(=O)NC2CC2)C(=O)N1 [Example 77]
2. CNC(=O)C(=O)[C@H](C[C@@H]1C[C@@H](C)NC1=O)NC(=O)c1cc(Cl)cc(F)c1NC(=O)OC [Example 133]
3. CNC(=O)C(=O)[C@H](C[C@@H]1C[C@@H](C)NC1=O)NC(=O)c1cc(Cl)c(Cl)cc1NC(=O)OC [Example 144]
4. CNC(=O)C(=O)[C@H](C[C@@H]1C[C@@H](C)NC1=O)NC(=O)c1cc(Cl)ccc1NC(=O)OCC1CC1(F)F (stereo partly drawn) [Example 187]
5. CNC(=O)C(=O)[C@H](C[C@@H]1C[C@@H](C)NC1=O)NC(=O)c1cc(Cl)ccc1NC(=O)OC1CCC(F)(F)C1 (stereo partly drawn) [Example 200]

Result string:
1: 5.3; 2: 9.9; 3: 5.3; 4: 2.5; 5: 4.6

====

- SYSTEM NAME: SARS2 coronavirus 3CL protease (Severe acute respiratory syndrome coronavirus 2, UniProt P0DTD1)
- METHOD SUMMARY: biochemical
- EXPERIMENTAL PARAMETERS: 5 nM enzyme, 30 min pre-incubation with compound, 15 μM peptide substrate, 4 h at room temperature; read-out: FRET Potency (nM); IC50 values in the SARS2 3CLPro FRET assay
Exam item: assign True to entries whose IC50 is below 20 nM and False to entries at or above 20 nM. Note that a value of exactly 20 nM receives False.

Completed entries (count: 3):
CNC(=O)C(=O)[C@H](C[C@@H]1C[C@@H](C)NC1=O)NC(=O)c1cc(Cl)ccc1NC(=O)C(C)c1ccc(C(F)(F)F)nc1 (single isomer, unassigned) [Example 229]	False
CNC(=O)C(=O)[C@H](C[C@@H]1C[C@@H](C)NC1=O)NC(=O)c1cc(F)ccc1NC(=O)OC [Example 104]	True
C[C@@H]1C[C@@H](C[C@H](NC(=O)c2cc(F)ccc2NC(=O)C2(C(F)(F)F)CC2)C(=O)C(=O)NC2CC2)C(=O)N1 [Example 25]	True

Query string: Hi there! Is IC50 for C[C@@H]1C[C@@H](C[C@H](NC(=O)c2cc(F)c(F)cc2NC(=O)c2ccnc(C(F)(F)F)c2)C(=O)C(=O)NC2CC2)C(=O)N1 [Example 49] below 20 nM, do you know?
Result string: True

Query string: Hi there! Is IC50 for CNC(=O)C(=O)[C@H](C[C@@H]1C[C@@H](C)NC1=O)NC(=O)c1cc(C(F)(F)F)ccc1NC(=O)OC1CC1 [Example 169] below 20 nM, do you know?
Result string: False

Query string: Hi there! Is IC50 for O=C(NC1CC1)C(=O)[C@H](C[C@@H]1CCNC1=O)NC(=O)c1cc(Cl)ccc1NC(=O)[C@H]1CC1(F)F [Example 168] below 20 nM, do you know?
Result string: True
